target: Human recombinant PDE10A (hPDE10A) (Homo sapiens, UniProt Q9Y233); construct: His tag (inferred from metal chelate purification); made in house; host or cells: Sf9 insect cells (baculovirus); experiment: In vitro assay PDE10A, human clone (SPA, 3H-cAMP hydrolysis); type: biochemical; conditions: human clone (h), default; read-out: hPDE10A2 Emax
Sequence (Q9Y233 267-1055): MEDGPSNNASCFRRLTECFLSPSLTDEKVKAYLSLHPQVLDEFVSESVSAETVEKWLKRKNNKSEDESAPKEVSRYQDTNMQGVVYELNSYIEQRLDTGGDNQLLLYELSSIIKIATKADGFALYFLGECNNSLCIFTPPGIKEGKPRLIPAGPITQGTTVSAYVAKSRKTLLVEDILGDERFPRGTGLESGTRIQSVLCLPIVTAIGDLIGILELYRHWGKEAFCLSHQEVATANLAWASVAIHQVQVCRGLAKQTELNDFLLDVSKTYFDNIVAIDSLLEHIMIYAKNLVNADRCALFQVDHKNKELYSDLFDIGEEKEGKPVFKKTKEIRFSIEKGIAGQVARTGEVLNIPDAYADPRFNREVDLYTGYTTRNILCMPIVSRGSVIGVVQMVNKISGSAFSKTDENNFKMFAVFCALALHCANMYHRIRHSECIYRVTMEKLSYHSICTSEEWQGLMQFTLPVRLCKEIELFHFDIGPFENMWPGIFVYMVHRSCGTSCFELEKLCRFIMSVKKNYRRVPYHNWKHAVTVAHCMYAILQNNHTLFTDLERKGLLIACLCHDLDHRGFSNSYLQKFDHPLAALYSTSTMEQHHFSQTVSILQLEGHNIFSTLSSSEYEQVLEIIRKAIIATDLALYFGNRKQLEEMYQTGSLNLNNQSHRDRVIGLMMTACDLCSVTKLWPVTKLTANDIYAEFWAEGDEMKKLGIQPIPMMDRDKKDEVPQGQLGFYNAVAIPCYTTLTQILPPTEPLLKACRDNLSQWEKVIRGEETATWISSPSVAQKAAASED
PARAMETER: Emax (%)

(1) C[C@@H]1CCN(C(=O)c2ccc3ncsc3c2)C[C@@]1(F)c1cc(C(F)F)nc2ncnn12 [Compound 33]
(2) Cc1csc2ccc(C(=O)N3CC[C@@H](C)[C@H](c4cc(C(F)F)nc5ncnn45)C3)nc12 [Compound 100]
Problem: Pick one, 1 or 2 : lowest reported Emax. # reply format: chosen label
Result: 1

----------
Biological target: Human recombinant PDE3A (hPDE3A) (Homo sapiens, UniProt Q14432)
Construct: purchased Scottish Biomedical; host or cells: Sf9 insect cells
Sequence (Q14432 whole entry): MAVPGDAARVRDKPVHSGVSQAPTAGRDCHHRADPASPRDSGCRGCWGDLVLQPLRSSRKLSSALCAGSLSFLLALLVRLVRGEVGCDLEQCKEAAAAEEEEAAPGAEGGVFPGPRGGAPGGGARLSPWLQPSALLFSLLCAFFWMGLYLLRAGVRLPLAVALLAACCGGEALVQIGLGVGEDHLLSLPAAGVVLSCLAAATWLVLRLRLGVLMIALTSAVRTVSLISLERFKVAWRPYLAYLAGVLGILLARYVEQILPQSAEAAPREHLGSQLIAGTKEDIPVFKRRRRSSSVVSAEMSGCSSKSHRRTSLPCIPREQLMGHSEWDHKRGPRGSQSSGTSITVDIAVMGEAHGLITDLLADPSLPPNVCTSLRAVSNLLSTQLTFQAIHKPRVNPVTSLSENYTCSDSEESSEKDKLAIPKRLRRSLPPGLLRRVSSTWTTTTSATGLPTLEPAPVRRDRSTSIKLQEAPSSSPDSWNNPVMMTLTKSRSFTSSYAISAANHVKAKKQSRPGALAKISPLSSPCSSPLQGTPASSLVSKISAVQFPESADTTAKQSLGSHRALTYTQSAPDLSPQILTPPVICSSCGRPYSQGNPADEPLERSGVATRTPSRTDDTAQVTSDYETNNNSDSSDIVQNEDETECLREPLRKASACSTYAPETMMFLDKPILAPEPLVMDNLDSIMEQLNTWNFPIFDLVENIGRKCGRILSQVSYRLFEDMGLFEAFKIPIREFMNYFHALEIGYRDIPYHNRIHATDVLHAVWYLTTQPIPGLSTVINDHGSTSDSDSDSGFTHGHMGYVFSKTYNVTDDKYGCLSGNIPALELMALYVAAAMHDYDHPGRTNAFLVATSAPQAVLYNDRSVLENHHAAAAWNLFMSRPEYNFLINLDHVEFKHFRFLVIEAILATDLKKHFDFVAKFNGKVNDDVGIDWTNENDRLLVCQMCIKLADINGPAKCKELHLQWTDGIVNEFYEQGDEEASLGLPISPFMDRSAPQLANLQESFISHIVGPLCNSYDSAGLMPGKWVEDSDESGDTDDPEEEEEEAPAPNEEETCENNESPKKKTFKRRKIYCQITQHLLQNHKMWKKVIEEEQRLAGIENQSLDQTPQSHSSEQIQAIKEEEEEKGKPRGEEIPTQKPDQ
Assay: In vitro assay PDE3A (SPA, 3H-cAMP hydrolysis)
Type: biochemical
Conditions: hPDE3B pIC50; read-out: pIC50 (converted)
Experimental: Human recombinant PDE3A (hPDE3A) was supplied as a partially purified insect cell lysate by Scottish Biomedical, it was cloned from human brain and expressed in Sf9 cells. Tested compounds were dissolved and diluted in 100% DMSO to a concentration 100 fold of the final concentration in the assay. […] After sedimentation of the beads during 30 min the radioactivity was measured in a Perkin Elmer Topcount scintillation counter and results were expressed as cpm. […]
PARAMETER: IC50 (µM)

COc1cc(C(=O)N2CC[C@@H](C)[C@H](c3cc(C(F)F)nc4ncnn34)C2)ccc1F	5.62
Cc1cc([C@@H]2CN(C(=O)c3ccc(C(C)(C)C)o3)CC[C@H]2C)n2ncnc2n1	4.27
COc1c(F)cc(C(=O)N2[C@H]3CC[C@H](c4cc(C(F)F)nc5ncnn45)[C@@H]2CC3)cc1F	3.98

----------
biological target: Human recombinant PDE3A (hPDE3A) (Homo sapiens, UniProt Q14432); construct: purchased Scottish Biomedical; host or cells: Sf9 insect cells; test: In vitro assay PDE3A (SPA, 3H-cAMP hydrolysis); assay type: biochemical; conditions: hPDE3B pIC50; read-out: pIC50 (converted);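 also: the method names PDE3A and the table heading PDE3B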
PARAMETER: IC50

Problem: # get_value(readout='IC50', item= C[C@@H]1CCN(C(=O)c2ccnc(Cl)c2F)C[C@H]1c1cc(C(F)F)nc2ncnn12 [Compound 55] )
Result: > 10 µM

Problem: # get_value(readout='IC50', item= Cc1cc([C@H]2CN(C(=O)c3cc(C)c(Cl)c(C)c3)CC[C@@H]2C)n2ncnc2n1 [Compound 218] )
Result: > 10 µM

Problem: # get_value(readout='IC50', item= CC(C)c1n[nH]cc1C(=O)N1CC[C@@H](C)[C@H](c2cc(C(F)F)nc3ncnn23)C1 [Compound 61] )
Result: > 10 µM

----------
target: Human recombinant PDE10A (hPDE10A) (Homo sapiens); construct: His tag (inferred from metal chelate purification); made in house; host or cells: Sf9 insect cells (baculovirus); assay: In vitro assay PDE10A, human clone (SPA, 3H-cAMP hydrolysis); format: biochemical; conditions: human clone by default (no (r) mark); read-out: hPDE10A2 or rPDE10A2 Emax
PARAMETER: Emax (%)

O=C(c1ccc(F)c(Cl)c1)N1[C@H]2CC[C@H](c3cc(C(F)F)nc4ncnn34)[C@@H]1CC2 [Compound 377]	89
Cc1nc(C)c(C(=O)N2CC[C@@H](C)[C@H](c3cc(C(F)F)nc4ncnn34)C2)s1 [Compound 264]	74
O=C(c1cccc2ncccc12)N1[C@H]2CC[C@H](c3cc(C(F)F)nc4ncnn34)[C@@H]1CC2 [Compound 315]	47
C/C(=C\c1ccc(F)cc1)C(=O)N1[C@H]2CC[C@H](c3cc(C(F)F)nc4ncnn34)[C@@H]1CC2 [Compound 370]	94
Cc1nc2ccc(C(=O)N3[C@H]4CC[C@H](c5cc(C(F)F)nc6ncnn56)[C@@H]3CC4)cc2s1 [Compound 368]	99

(P) Cc1nc(C(=O)N2CC[C@@H](C)[C@H](c3cc(C(F)F)nc4ncnn34)C2)c(C)o1 [Compound 252]
(Q) Cc1cc([C@@H]2CN(C(=O)c3cc(C4CC4)ncc3Cl)CC[C@H]2C)n2ncnc2n1 [Compound 391]
Problem: Between the two listed entries P and Q , which has its Emax at the higher number? # reply format: chosen label
Result: Q
